Test system: MCF7 breast
Experiment: NCI tumour cell line growth inhibition, 48 h
Listing: GI50 of selected molecules
Value Kind: GI50

{"Smiles Repr": "OCCN(CO)CN(CN(CO)CCO)c1nc(N(CN(CO)CCO)CN(CO)CCO)nc(N(CN(CO)CCO)CN(CO)CCO)n1", "Val": "0.55 ng/mL"}
{"Smiles Repr": "O=c1c2cc(I)ccc2nc(-c2cccs2)n1Nc1ccccc1", "Val": "1.99 µM"}
{"Smiles Repr": "CCN(CC)CCC(=O)Nc1cccc2c1C(=O)c1c(c(O)c3ccccc3c1O)C2=O", "Val": "6.77 µM"}
{"Smiles Repr": "Clc1nc(Cl)c2ncn(C/C=C\\Cn3cnc4c(Cl)nc(Cl)nc43)c2n1", "Val": "1.39 µM"}
{"Smiles Repr": "COC(=O)C1=CN(CC2=CC(=O)C(C)=CC2=O)C=C(C(=O)OC)C1c1cccc(OC)c1OC", "Val": "18.6 µM"}
